- Tested on: Alternaia brassicicola
- method_summary: Test Example C: Alternaria sooty spot on cabbage
- Type: in vivo
- cond: Brassica oleracea, topical; Alternaria sooty spot on cabbage; class of control value; read-out: Test C control value class
- Text: Seeds of a test plant (cabbage variety: Shikidori) were planted and cultivated until the cotyledons extended. <Control Value> Control value=100{1−(n/3)}
observed_property: pest or weed control at 250 µg/mL

1. CCC(O)c1cc(Cl)c(=O)n(CC)c1-c1c(F)cccc1F (stereo not drawn): > 50%
2. CCn1c(-c2c(F)cccc2F)c(C(Br)Br)cc(Cl)c1=O: < 50%
3. CCn1c(-c2c(F)cccc2F)c(C=O)cc(Cl)c1=O: < 50%
4. CCn1c(-c2c(F)cccc2F)c(C(C)(O)CC)cc(Cl)c1=O (stereo not drawn): > 50%
5. CCn1c(-c2c(F)cc(OC)cc2F)c(C(C)C)ccc1=O: > 50%
6. CCn1c(-c2c(F)cccc2F)c(C)ccc1=O: < 50%

Recorded values, source patent US11147272B2.
